This collection of values is drawn from patent US6525001B1.

Test system: soybean (Glycine max)
PROCEDURE TEXT: Test B pre-/postemergence
Format: in vivo
CONDITION DETAILS: Rate 125 g/ha, Preemergence
TEST READOUT: Plant response rating, Soybean
Form rule: numeric answer, no unit written next to it.

Example molecules with recorded Plant response rating, Soybean:
Form field: reported Plant response rating, Soybean of Cc1cnc(-n2cnc(C(F)(F)F)n2)nc1Cn1ccc(C(F)(F)F)n1 [Compound 51]
9

Form field: reported Plant response rating, Soybean of Cc1cnc(-n2cnc(C(F)(F)F)c2)nc1C(=O)c1cccc(C(F)(F)F)c1 [Compound 61]
1

Form field: reported Plant response rating, Soybean of CCc1cnc(-n2ccc(C(F)(F)F)n2)nc1C(=O)c1cccc(C(F)(F)F)c1 [Compound 69]
1

Consider now this further molecule.
Form field: reported Plant response rating, Soybean of Cc1cnc(-n2ccc(C(F)(F)C(F)(F)F)n2)nc1C(=O)c1cccc(OC(F)(F)F)c1 [Compound 62]
0

---

Plant response rating, Barnyardgrass values for the molecules below.
System: bamyardgrass (Echinochloa crus-galli)
PROCEDURE TEXT: Test B flood test
Format: in vivo
CONDITION DETAILS: Rate 250 g/ha, Postemergence (flood test species)
Form rule: numeric answer, no unit written next to it.

Any idea what Plant response rating, Barnyardgrass came out for Cc1cnc(-c2ccc(C(F)(F)F)cc2)nc1Cc1cccc(C#N)c1 on bamyardgrass (Echinochloa crus-galli)?
3

***
Any idea what Plant response rating, Barnyardgrass came out for Cc1cnc(-n2cnc(C(F)(F)F)c2)nc1C(=O)c1cccc(C(F)(F)F)c1 on bamyardgrass (Echinochloa crus-galli)?
3

Any idea what Plant response rating, Barnyardgrass came out for Cc1cnc(-c2ccc(C(F)(F)F)cc2)nc1Cn1ccc(C#N)n1 on bamyardgrass (Echinochloa crus-galli)?
2

Any idea what Plant response rating, Barnyardgrass came out for Cc1cnc(-c2ccc(C(F)(F)F)cc2)nc1Cn1cc(Br)cn1 on bamyardgrass (Echinochloa crus-galli)?
3

Any idea what Plant response rating, Barnyardgrass came out for Cc1cnc(-c2ccc(C(F)(F)F)cc2)nc1C(C#N)c1cccc(C(F)(F)F)c1 (racemic) on bamyardgrass (Echinochloa crus-galli)?
6

Any idea what Plant response rating, Barnyardgrass came out for Cc1cnc(-n2ccc(C(F)(F)F)n2)nc1Cc1cccc(C(F)(F)F)c1 on bamyardgrass (Echinochloa crus-galli)?
5

Any idea what Plant response rating, Barnyardgrass came out for O=C(c1cccc(C(F)(F)F)c1)c1ccnc(-c2ccc(C(F)(F)F)cc2)n1 on bamyardgrass (Echinochloa crus-galli)?
0

Any idea what Plant response rating, Barnyardgrass came out for Cc1cnc(-c2ccc(C(F)(F)F)cc2)nc1Cn1nc(C(F)(F)F)cc1C on bamyardgrass (Echinochloa crus-galli)?
3

---

Test system: bamyardgrass (Echinochloa crus-galli)
PROCEDURE TEXT: Test B flood test
Assay type: in vivo
CONDITION DETAILS: Rate 125 g/ha, Postemergence, flood test
Mark True only when Plant response rating, Barnyardgrass stays strictly below 2. Values equal to the cut-off are False.

Identify whether the compound Cc1cnc(-c2ccccc2)nc1Cn1ccc(C(F)(F)F)n1 records Plant response rating, Barnyardgrass below 2.
True

Identify whether the compound Cc1cnc(-c2ccc(C(F)(F)F)cc2)nc1C(Cl)c1cccc(C(F)(F)F)c1 (racemic) records Plant response rating, Barnyardgrass below 2.
False

Identify whether the compound Cc1cnc(-c2ccc(OC(F)(F)F)cc2)nc1Cc1cccc(C(F)(F)F)c1 records Plant response rating, Barnyardgrass below 2.
False

Identify whether the compound Cc1cnc(-c2ccc(C(F)(F)F)cc2)nc1Cn1ccc(C(F)(F)C(F)(F)F)n1 records Plant response rating, Barnyardgrass below 2.
False

Identify whether the compound COc1cnc(-c2ccc(C(F)(F)F)cc2)nc1Cc1cccc(C(F)(F)F)c1 records Plant response rating, Barnyardgrass below 2.
False

Identify whether the compound Cc1cnc(-c2ccc(Cl)cc2F)nc1Cc1cccc(C(F)(F)F)c1 records Plant response rating, Barnyardgrass below 2.
False

***
Identify whether the compound Cc1cnc(-c2ccc(Cl)c(Cl)c2)nc1Cc1cccc(C#N)c1 records Plant response rating, Barnyardgrass below 2.
True

Identify whether the compound Cc1cnc(-c2ccc(F)cc2F)nc1Cc1cccc(C#N)c1 records Plant response rating, Barnyardgrass below 2.
True

---

System: wheat (Triticum aestivum)
PROCEDURE TEXT: Test B pre-/postemergence
Format: in vivo
CONDITION DETAILS: Rate 125 g/ha, Postemergence
TEST READOUT: Plant response rating, Wheat

Example compounds with recorded Plant response rating, Wheat:
Form field: reported Plant response rating, Wheat of Cc1cnc(-c2ccc(C(F)(F)F)cc2)nc1Cn1ccc(C(F)(F)F)n1 [compound 9]
3

Form field: reported Plant response rating, Wheat of COC(c1cccc(C(F)(F)F)c1)c1nc(-c2ccc(C(F)(F)F)cc2)ncc1C (racemic) [Compound 20]
3

Form field: reported Plant response rating, Wheat of COc1cnc(-c2ccc(C(F)(F)F)cc2)nc1Cc1cccc(C(F)(F)F)c1 [Compound 23]
4

Form field: reported Plant response rating, Wheat of Cc1cnc(-c2ccc(C(F)(F)F)cc2)nc1Cc1cccc(C(F)(F)F)c1 [Example 1]
2

Form field: reported Plant response rating, Wheat of Cc1cnc(-c2ccc(OC(F)(F)F)cc2)nc1Cc1cccc(C(F)(F)F)c1 [Compound 16]
0

***
Form field: reported Plant response rating, Wheat of Cc1cnc(-c2ccc(C(F)(F)F)cc2)nc1C(Cl)c1cccc(C(F)(F)F)c1 (racemic) [Compound 21]
4

Form field: reported Plant response rating, Wheat of COC(=O)C(c1cccc(C(F)(F)F)c1)c1nc(-c2ccc(C(F)(F)F)cc2)ncc1C (racemic) [Compound 18]
3

Form field: reported Plant response rating, Wheat of CCc1cnc(-c2ccc(C(F)(F)F)cc2)nc1Cc1cccc(C(F)(F)F)c1 [Compound 22]
4

Form field: reported Plant response rating, Wheat of Cc1cnc(-n2ccc(C(F)(F)F)n2)nc1Cc1cccc(C(F)(F)F)c1 [Example 2]
2

---

System: duck salad (Heteranthera limosa)
PROCEDURE TEXT: Test B flood test
Assay type: in vivo
CONDITION DETAILS: Rate 62 g/ha, Postemergence (flood test)
TEST READOUT: Ducksalad plant response rating
Form rule: numeric answer, no unit written next to it.

Example compounds with recorded Ducksalad plant response rating:
Any idea what Ducksalad plant response rating came out for COc1cnc(-n2ccc(C(F)(F)F)n2)nc1C(=O)c1cccc(C(F)(F)F)c1 on duck salad (Heteranthera limosa)?
1

Any idea what Ducksalad plant response rating came out for Cc1cnc(-n2ccc(C(F)(F)F)n2)nc1C(=O)c1ccc(C(F)(F)F)cc1 on duck salad (Heteranthera limosa)?
0

Any idea what Ducksalad plant response rating came out for Cc1cnc(-n2cnc(C(F)(F)F)c2)nc1C(=O)c1cccc(C(F)(F)F)c1 on duck salad (Heteranthera limosa)?
0

Any idea what Ducksalad plant response rating came out for Cc1cnc(-c2ccc(C(F)(F)F)cc2)nc1Cn1cc(Br)cn1 on duck salad (Heteranthera limosa)?
0

Any idea what Ducksalad plant response rating came out for Cc1cnc(-n2ccc(C(F)(F)F)n2)nc1C(=O)c1cccc(C(F)(F)F)c1 on duck salad (Heteranthera limosa)?
3

***
Any idea what Ducksalad plant response rating came out for CCc1cnc(-n2ccc(C(F)(F)F)n2)nc1C(=O)c1cccc(C(F)(F)F)c1 on duck salad (Heteranthera limosa)?
0

---

Plant response rating, Bermudagrass values for the compounds below.
System: bermudagrass (Cynodon dactylon)
PROCEDURE TEXT: Test E pre-/postemergence/post directed
Type: in vivo
CONDITION DETAILS: PREEMERGENCE, Rate 32 g/ha
Form rule: numeric answer, no unit written next to it.

Example compounds with recorded Plant response rating, Bermudagrass:
Form field: reported Plant response rating, Bermudagrass of Cc1cnc(-c2ccc(C(F)(F)F)cc2)nc1Cc1cccc(OC(F)(F)F)c1 [Compound 15]
98

Form field: reported Plant response rating, Bermudagrass of Cc1cnc(-n2cnc(C(F)(F)F)c2)nc1Cc1cccc(C(F)(F)F)c1 [Compound 44]
30

Form field: reported Plant response rating, Bermudagrass of CCc1cnc(-n2ccc(C(F)(F)F)n2)nc1Cc1cccc(C(F)(F)F)c1 [Compound 46]
70

Form field: reported Plant response rating, Bermudagrass of Cc1cnc(-n2ccc(C(F)(F)F)n2)nc1Cc1cccc(C(F)(F)F)c1 [Example 2]
98

Form field: reported Plant response rating, Bermudagrass of Cc1cnc(-c2ccc(C(F)(F)F)cc2)nc1Cn1ccc(C(F)(F)F)n1 [compound 9]
70

Consider now this further compound.
Form field: reported Plant response rating, Bermudagrass of Cc1cnc(-n2ccc(C(F)(F)F)n2)nc1Cc1cccc(OC(F)(F)F)c1 [Compound 42]
90

---

Plant response rating, Rice values for the molecules below.
Tested on: rice (Oryza sativa)
PROCEDURE TEXT: Test B flood test
Assay type: in vivo
CONDITION DETAILS: Rate 125 g/ha, Postemergence, flood test
Form rule: numeric answer, no unit written next to it.

Example molecules with recorded Plant response rating, Rice:
Form field: reported Plant response rating, Rice of Cc1cnc(-c2cccc(C(F)(F)F)c2)nc1Cc1cccc(C(F)(F)F)c1
1

Form field: reported Plant response rating, Rice of Cc1cnc(-c2ccc(C(F)(F)F)cc2)nc1Cn1ccc(C(F)(F)C(F)(F)F)n1
4

***
Form field: reported Plant response rating, Rice of Cc1cnc(-c2ccc(C(F)(F)F)cc2)nc1C(C)c1cccc(C(F)(F)F)c1 (racemic)
0

Form field: reported Plant response rating, Rice of COc1cnc(-c2ccc(C(F)(F)F)cc2)nc1Cc1cccc(C(F)(F)F)c1
4

Form field: reported Plant response rating, Rice of Cc1cnc(-c2ccc(C(F)(F)F)cc2)nc1Cn1cc(I)cn1
2

Form field: reported Plant response rating, Rice of Cc1cnc(-c2ccccc2)nc1Cn1ccc(C(F)(F)F)n1
0
